- test.target: GLUT1 (Homo sapiens)
- Sequence (P11166 whole entry, species assumed): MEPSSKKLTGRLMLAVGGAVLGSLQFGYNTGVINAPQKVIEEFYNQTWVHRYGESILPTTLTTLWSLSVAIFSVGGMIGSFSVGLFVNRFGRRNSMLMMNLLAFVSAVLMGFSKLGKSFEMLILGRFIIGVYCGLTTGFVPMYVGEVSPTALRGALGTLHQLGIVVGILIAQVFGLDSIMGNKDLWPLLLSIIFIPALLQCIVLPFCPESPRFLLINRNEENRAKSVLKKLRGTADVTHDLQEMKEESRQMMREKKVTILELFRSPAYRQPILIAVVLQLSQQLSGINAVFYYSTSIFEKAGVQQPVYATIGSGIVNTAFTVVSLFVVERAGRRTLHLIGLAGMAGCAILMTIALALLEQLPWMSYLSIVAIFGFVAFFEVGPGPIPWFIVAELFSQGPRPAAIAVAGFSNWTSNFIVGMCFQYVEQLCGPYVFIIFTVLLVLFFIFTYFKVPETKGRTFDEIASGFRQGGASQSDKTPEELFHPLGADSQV
- method.description: Indirect measurement of GLUT1 activity by quantification of intracellular ATP levels (glucose induced ATP increase)
- Format: cell-based
- Design: endogenous in cells; host or cells: DLD1 or CHO-K1
- assay.context: read-out: IC50 regarding glucose induced ATP increase (GLUT1 inhibition)
pIC50: −log10 of the molar value.
parameter: pIC50

molecule=Cc1nn(Cc2ccc(F)c(F)c2)c(C)c1NC(=O)c1cc(C(F)(F)F)nc2cccc(F)c12 numeric_result=7.19
molecule=Cc1nn(Cc2ccc(C(=O)Nc3nccs3)cc2)c(C)c1NC(=O)c1cc(C(F)(F)F)nc2ccc(Br)cc12 numeric_result=7.95

A: Cc1c(NC(=O)c2cc([S+](C)[O-])nc3ccccc23)c(C(F)(F)F)nn1Cc1ccc(C#N)cc1 (racemic)
B: Cc1c(NC(=O)c2cc(C(N)=O)nc3cccc(F)c23)c(C(F)(F)F)nn1Cc1ccc(CC#N)cc1
C: Cc1nn(Cc2ccc(C(=O)NCCN(C)C)cc2)c(C)c1NC(=O)c1cc(C(F)(F)F)nc2ccc(Br)cc12
D: Cc1nn(Cc2ccc(F)cc2)c(C)c1NC(=O)c1cc(C(F)(F)F)nc2ccc([N+](=O)[O-])cc12
rank_up(items): orders items by reported pIC50 in ascending numerical order. # the answer lists labels in the order requested
C, D, A, B
(C: 7.15, D: 7.46, A: 8.08, B: 8.89)

====

- test.target: UniProt:P11166
- method.description: Indirect measurement of GLUT1 activity by quantification of intracellular ATP levels (glucose induced ATP increase)
- Format: cell-based
- Design: endogenous in cells; host or cells: DLD1 or CHO-K1
- assay.context: read-out: IC50 regarding glucose induced ATP increase (GLUT1 inhibition)
pIC50: −log10 of the molar value.
parameter: pIC50

Use these answered entries as a reference point.
compound_string=Cc1nn(Cc2ccc(C(=O)NC(CO)(CO)CO)cc2)c(C)c1NC(=O)c1cc(C(F)(F)F)nc2ccc(Br)cc12 parameter=pIC50 numeric_result=7.01
compound_string=Cc1ccc2nc(C)cc(C(=O)Nc3c(C)nn(Cc4ccc(F)c(Cl)c4)c3C)c2c1 parameter=pIC50 numeric_result=6.90
compound_string=Cc1nn(Cc2ccc(OC(F)(F)F)cc2)c(C)c1NC(=O)c1cc(C(F)(F)F)nc2c(Cl)cc(Cl)cc12 parameter=pIC50 numeric_result=7.01
compound_string=CC(=O)N1CCC(Cn2nc(C)c(NC(=O)c3cc(C(F)(F)F)nc4ccc(Br)cc34)c2C)CC1 parameter=pIC50 numeric_result=6.83
compound_string=Cc1nn(Cc2ccc(C(C)(C)C)cc2)c(C)c1NC(=O)c1cc(C(N)=O)nc2cc(F)ccc12 parameter=pIC50 numeric_result=6.85
compound_string=Cc1nn(Cc2ccc(C(=O)NCc3cnn(C)c3)cc2)c(C)c1NC(=O)c1cc(C(F)(F)F)nc2ccc(Br)cc12 parameter=pIC50 numeric_result=6.86
compound_string=CCS(=O)(=O)N1CCC(Cn2nc(C)c(NC(=O)c3cc(C(N)=O)nc4cc(F)ccc34)c2C)CC1 parameter=pIC50 numeric_result=7.71

P: Cc1cc(C(=O)Nc2c(C)nn(Cc3ccc(F)cc3)c2C)c2cccc(Br)c2n1
Q: Cc1ccc(Cn2nc(C)c(NC(=O)c3cc(C(F)(F)F)nc4c(Cl)cc(Cl)cc34)c2C)cc1
R: Cc1nn(Cc2ccc(C(=O)NCc3ccccc3F)cc2)c(C)c1NC(=O)c1cc(C(F)(F)F)nc2ccc(Br)cc12
S: Cc1nn(Cc2cc(C(C)C)no2)c(C)c1NC(=O)c1cc(C(N)=O)nc2cc(F)c(Cl)cc12
rank_up(items): orders items by reported pIC50 in ascending numerical order. # the answer lists labels in the order requested
R, P, Q, S
